# Measurement Target: Receptor-type tyrosine-protein kinase FLT3 (Homo sapiens)
# Sequence (P36888 whole entry): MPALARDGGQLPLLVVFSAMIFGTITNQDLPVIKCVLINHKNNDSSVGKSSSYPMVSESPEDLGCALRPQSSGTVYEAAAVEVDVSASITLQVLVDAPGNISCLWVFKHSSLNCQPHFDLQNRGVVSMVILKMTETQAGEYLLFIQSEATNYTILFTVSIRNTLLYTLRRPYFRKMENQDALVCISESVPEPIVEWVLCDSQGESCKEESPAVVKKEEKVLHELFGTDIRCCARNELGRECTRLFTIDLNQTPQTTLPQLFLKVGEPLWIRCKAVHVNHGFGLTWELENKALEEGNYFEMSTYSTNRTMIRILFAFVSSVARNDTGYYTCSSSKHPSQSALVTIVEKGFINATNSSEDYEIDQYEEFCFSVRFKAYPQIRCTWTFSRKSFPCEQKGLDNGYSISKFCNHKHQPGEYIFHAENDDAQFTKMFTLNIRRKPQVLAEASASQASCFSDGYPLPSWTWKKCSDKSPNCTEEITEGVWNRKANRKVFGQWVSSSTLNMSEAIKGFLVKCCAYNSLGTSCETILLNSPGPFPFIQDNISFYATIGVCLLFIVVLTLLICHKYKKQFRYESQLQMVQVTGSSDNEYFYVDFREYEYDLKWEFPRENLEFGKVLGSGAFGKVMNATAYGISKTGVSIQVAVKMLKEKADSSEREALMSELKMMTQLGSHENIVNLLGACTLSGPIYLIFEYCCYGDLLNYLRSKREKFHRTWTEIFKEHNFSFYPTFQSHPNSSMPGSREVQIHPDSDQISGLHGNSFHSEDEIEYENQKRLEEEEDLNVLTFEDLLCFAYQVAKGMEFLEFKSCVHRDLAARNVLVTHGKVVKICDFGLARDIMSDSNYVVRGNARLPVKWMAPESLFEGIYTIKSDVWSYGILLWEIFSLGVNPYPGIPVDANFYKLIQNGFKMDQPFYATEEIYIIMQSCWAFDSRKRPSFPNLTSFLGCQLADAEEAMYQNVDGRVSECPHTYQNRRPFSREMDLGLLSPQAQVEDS
Experimental Readout: IC50
The answer consists of two parts: a number and, after it, its unit.

API: value(readout=IC50, system=Receptor-type tyrosine-protein kinase FLT3 (Homo sapiens)) for record Cc1cc(=O)n(-c2cc(Cl)ccc2F)nc1C(=O)Nc1ccc(Oc2ccnc(NC(=O)N3CC(O)C3)c2)c(F)c1
475 nM

* * *

# Test Description: AUC (0 to infinity) in mouse at 5 mg/kg, iv
# Type: ADME, organism-based
# Stated Conditions: in vivo
Experimental Readout: AUC(0-inf) (ng·h/mL)
Could you give me the number in ng·h/mL? Just the number is fine.

# query: AUC(0-inf) of entry Cc1cc(=O)n(-c2cc(Cl)ccc2F)nc1C(=O)Nc1ccc(Oc2ccnc(NC(=O)N3CC(O)C3)c2)c(F)c1
2210

* * *

# Test Description: Clearance in mouse at 5 mg/kg, iv
# Format: ADME, organism-based
# Stated Conditions: in vivo
Experimental Readout: clearance (mL/min/kg)
Could you give me the number in mL/min/kg? Just the number is fine.

# query: clearance of entry Cc1cc(=O)n(-c2cc(Cl)ccc2F)nc1C(=O)Nc1ccc(Oc2ccnc(NC(=O)N3CC(O)C3)c2)c(F)c1
38.8

* * *

# Measurement Target: CYP3A4 (Homo sapiens, UniProt P08684)
# Sequence (P08684 whole entry): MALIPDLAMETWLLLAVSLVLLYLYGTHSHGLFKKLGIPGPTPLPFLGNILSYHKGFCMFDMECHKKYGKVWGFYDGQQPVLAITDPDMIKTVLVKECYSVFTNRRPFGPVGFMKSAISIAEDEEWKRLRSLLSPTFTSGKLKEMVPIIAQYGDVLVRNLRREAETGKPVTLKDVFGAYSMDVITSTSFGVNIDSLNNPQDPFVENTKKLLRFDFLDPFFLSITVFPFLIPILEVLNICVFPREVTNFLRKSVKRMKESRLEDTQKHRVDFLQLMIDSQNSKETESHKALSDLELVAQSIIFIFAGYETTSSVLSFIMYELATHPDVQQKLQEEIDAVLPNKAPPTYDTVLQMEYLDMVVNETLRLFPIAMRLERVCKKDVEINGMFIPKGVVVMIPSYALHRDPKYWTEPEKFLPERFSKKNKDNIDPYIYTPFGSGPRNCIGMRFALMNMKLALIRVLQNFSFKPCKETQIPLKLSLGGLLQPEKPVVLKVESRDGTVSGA
# Test Description: Inhibition of CYP3A4 in human liver microsomes using midazolam as substrate at 10 uM incubated for 10 mins in presence of NADPH by LC-MS/MS analysis relative to control
# Type: ADME, Microsome
# Stated Conditions: probe midazolam
Experimental Readout: inhibition at 10 min, 10 µM (%)
Could you give me the number in %? Just the number is fine.

# query: inhibition at 10 min, 10 µM of entry Cc1cc(=O)n(-c2cc(Cl)ccc2F)nc1C(=O)Nc1ccc(Oc2ccnc(NC(=O)N3CC(O)C3)c2)c(F)c1
34.2
